# target entity: human CYP1A2, CYP1A2 (gene 1544)
# protocol notes: NVS_ADME_hCYP1A2: NovaScreen (NVS) CYP450-related Enzyme Activity (ADME) Assay for human CYP1A2 (AID 2283102);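 note: fluorescence from turnover of a fluorogenic substrate by recombinant insect-cell CYP1A2; potency for inhibition since loss of fluorescence marks reduced CYP1A2 activity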
The source made the active and inactive calls. Rule for the calls: active = hit-call score of the fitted dose curve at least 0.9, where 1 is the maximum; inconclusive = response in the unintended direction; inactive = score below 0.9.
AC50 values by entry
reported metric: AC50

* Nc1ccc2ccccc2c1 | 7.68 µM (active)
* CO/N=C(/C(=O)OC)c1ccccc1COc1ccccc1C | 9.98 µM (active)
* CCOP(=S)(Oc1ccc([N+](=O)[O-])cc1)c1ccccc1 (centres undefined) | 5.08 µM (active)
* O=P(Oc1ccccc1)(Oc1ccccc1)Oc1ccccc1 | 5.67 µM (active)

----------
# Read-out: TIMP metallopeptidase inhibitor 2 (TIMP2), TIMP2 (gene 7077)
# protocol notes: BSK_KF3CT_TIMP2: BioMAP Diversity Plus: KF3CT Assay for TIMP metallopeptidase inhibitor 2 (TIMP2) Biomarker Activity (AID 2283071)
# details: primary human keratinocytes with fibroblasts; actives raise or lower the signal
Activity calls are given as the source filed them. How the source made its calls: active means hit-call score of the fitted dose curve at least 0.9, where 1 is the maximum; inactive means score below 0.9.
Possible outcomes: true (1) (active), false (0) (inactive)

* CCOc1ccc(C(C)(C)COCc2cccc(Oc3ccccc3)c2)cc1 | false (0)
* Cc1ccc(O)cc1C | false (0)
* NC(=O)C(F)(F)C(F)(F)F | false (0)
* Cc1c([N+](=O)[O-])cc2c(c1[N+](=O)[O-])C(C)(C)CC2(C)C | false (0)
* O=[N+]([O-])c1ccccc1 | false (0)
* N#Cc1cc([N+](=O)[O-])ccc1N | false (0)
* CC(Cl)CN(C)C (centres undefined) | false (0)
* CCOP(=S)(NC(C)C)Oc1ccccc1C(=O)OC(C)C (centres undefined) | false (0)
* O=C(O)C(F)(F)OC(F)(F)C(F)(F)OC(F)(F)F | false (0)
* ClC(Cl)=C(c1ccc(Cl)cc1)c1ccccc1Cl | true (1)
* COCCOCCO | true (1)
* CCNc1nc(Cl)nc(NC(C)(C)C)n1 | false (0)
* O=P(Oc1ccccc1)(Oc1ccccc1)Oc1ccccc1 | false (0)
* O=[N+]([O-])c1ccc(Cl)c(Cl)c1 | false (0)

----------
# Read-out: Urokinase-type plasminogen activator receptor (uPAR), PLAUR (gene 5329)
# protocol notes: BSK_CASM3C_uPAR: BioMAP Diversity Plus: CASM3C Assay for Urokinase-type plasminogen activator receptor (uPAR) Biomarker Activity (AID 2283054);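 note: cell-surface uPAR protein level quantified by ELISA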
# details: primary human coronary artery smooth muscle cells; actives raise or lower the signal
Calls of active or inactive are those of the source. Rule for the calls: active = hit-call score of the fitted dose curve at least 0.9, where 1 is the maximum; inactive = score below 0.9.
Possible outcomes: active, inactive

• Nc1ccc2ccccc2c1 = inactive
• CCOP(=S)(NC(C)C)Oc1ccccc1C(=O)OC(C)C (stereo not given) = inactive
• O=C(O)C(F)(F)OC(F)(F)C(F)(F)OC(F)(F)C(=O)O = inactive
• c1cc2c3c(cccc3c1)CC2 = inactive
• CCCCCCCc1ccc(O)cc1 = active
• CCCCC(CC)COC(=O)c1c(Br)c(Br)c(Br)c(Br)c1C(=O)OCC(CC)CCCC (stereo not given) = inactive
• CCOc1ccc(C(C)(C)COCc2cccc(Oc3ccccc3)c2)cc1 = inactive
• CSC(C)(C)C=NO = inactive
• CC(Cl)CN(C)C (stereo not given) = active
• ClC1=C(Cl)C2(Cl)C3C(Cl)C(Cl)CC3C1(Cl)C2(Cl)Cl (stereo not given) = inactive
• O=C(O)C(F)(OC(F)(F)C(F)(F)C(F)(F)F)C(F)(F)F (stereo not given) = inactive
• O=C(O)C(Cl)Cl = inactive
• C=CC(=O)OCC(CC)(COC(=O)C=C)COC(=O)C=C = active
• OCC(F)(F)OC(F)(F)C(F)(F)OC(F)(F)C(F)(F)OC(F)(F)CO = inactive
• ClC(Cl)c1ccccc1 = inactive
• c1ccc2c(c1)sc1ccccc12 = inactive
• O=C(O)C=CC(F)(C(F)(F)F)C(F)(F)F = inactive
• Cc1ccc(N)cc1N = inactive
• CCCCN(CCCC)N=O = inactive
• CCCCN(CCCC)SN(C)C(=O)Oc1cccc2c1OC(C)(C)C2 = inactive
• c1nc[nH]n1 = inactive
• N#Cc1c(-c2ccc(Cl)cc2)[nH]c(C(F)(F)F)c1Br = active
• Nc1ccc([N+](=O)[O-])cc1Cl = active
• O=P(OCC(Br)CBr)(OCC(Br)CBr)OCC(Br)CBr (stereo not given) = inactive
• CCOC(=O)c1ccccc1C(=O)OCC = inactive
• O=C(O)C(F)(F)C(F)(F)C(=O)O = inactive
• O=c1ssc(Cl)c1Cl = active
• Nc1ccc(Cl)cc1 = inactive
• c1ccc2c(c1)Nc1ccccc1S2 = inactive
• O=[N+]([O-])c1ccccc1 = inactive
